Where do these numbers come from? They come from ChEMBL document CHEMBL1126655.

Test system: Human alphaherpesvirus 1
Experiment: Antiviral activity against Herpes simplex virus-1 (Schooler)
Type: functional
Conditions: read-out: ID50 (the source's name)
ASSAY_ENDPOINT: IC50 (µM)

[[record]]
smiles_record = "Nc1nc(O)c2ncn([C@@H]3CO[C@H](CO)[C@H]3CO)c2n1"
assay_endpoint = "IC50"
numeric_result = 18

